tested on: OVCAR-3 ovarian; test: NCI-60 one-dose screen, 48 h (100 = growth as untreated, 0 = no growth, -100 = all killed); conditions: 10 µM unless noted
This is part of a sample that, as a whole, favours compounds with a hit. Of some 83,000 tested, about 20% had one in any assay.
recorded metric: growth (%)
Give the number; % is assumed, so skip it.

Query :: What does the record list as growth for N#C/C(=C\c1ccc(-c2ccc(F)cc2)o1)c1nc(-c2ccco2)cs1 ?
Result :: 105

Query :: Similarly, O=c1[nH]c(=S)[nH]c2nc[nH]c12 ?
Result :: 115

Query :: Similarly, CC(C)(C)c1ccc(OCCCCCCCN2CCNCC2)cc1 ?
Result :: 62

Query :: Similarly, Cc1cc(N2CCOCC2)nc(N(CCCNc2ccnc3cc(Cl)ccc23)Cc2ccco2)n1 ?
Result :: 2.02

Query :: Similarly, CCN1CCN(C(=O)[C@]23CCC(C)(C)C[C@@H]2C2=CC[C@@H]4[C@@]5(C)C/C(=C/c6cccnc6)C(=O)C(C)(C)[C@@H]5CC[C@@]4(C)[C@]2(C)CC3)CC1 ?
Result :: 28.6

###

system: MDA-MB-435 melanoma; test: NCI-60 one-dose screen, 48 h; settings: 10 µM unless noted
About 83,000 compounds went through this panel and 20% of them were active in at least one assay; those are over-represented in the sample as a whole. Calls of active or inactive are those of the source. Rule for the calls: active = growth percent below 10; inactive = the rest.
Hi! Could you answer with just one of these? t for active, f for inactive

Query :: Could you kindly confirm the outcome this assay logged for CCc1nnc(NC(=O)c2ccoc2COc2ccccc2)s1 ?
Result :: t

Query :: Similarly, O=C1c2cccc3cccc(c23)C(=O)N1CC#Cc1ccc2c3c(cccc13)C(=O)N(CCO)C2=O ?
Result :: f

Query :: Similarly, C#CCn1c2c(c3ccccc31)C[C@]1(C)[C@H]3CC[C@@H]4[C@@H]5C(=CCC[C@H]5C(=C)C)CC[C@@]4(C)[C@]3(C)CC[C@H]1C2(C)C ?
Result :: f

Query :: Similarly, COc1ccc(NC(=O)c2ccc3c(c2)nc(-c2cc4ccccc4[nH]c2=O)n3-c2cc(C(C)(C)C)[nH]n2)cc1 ?
Result :: f

Query :: Similarly, O=C1c2cc3c(cc2-c2c1c1ccc(Cl)cc1c(=O)n2C[C@H](O)[C@@H](O)[C@H](O)CO)OCO3 ?
Result :: t

Query :: Similarly, Cc1cc(N(CCCNc2ccnc3cc(Cl)ccc23)Cc2ccco2)nc(Cl)n1 ?
Result :: f

Query :: Similarly, COc1cc2c3c(c4c5ccccc5[nH]c4c2c(OC)c1OC)C(=O)N(O)C3=O ?
Result :: f

Query :: Similarly, Cn1nc(-c2ccccc2)c2c(-c3ccccc3)onc2c1=O ?
Result :: t

Query :: Similarly, Oc1ccc(CCC2CCCC(CCc3ccc(OCCF)cc3)N2)cc1 (centres undefined) ?
Result :: f

Query :: Similarly, CN(C)c1cccc2[nH]c(-c3[nH]ncc3Nc3ccnc(N)n3)nc12 ?
Result :: t

Query :: Similarly, CC(C)=CCC/C(C)=C/CC/C(C)=C/CC/C(C)=C/CSC[C@H](NC(=O)CCCCCN1CCN(C)CC1)C(=O)NC1CCCCC1 ?
Result :: f

Query :: Similarly, COc1cccc(-c2nn(-c3ccccc3)cc2-c2ccnc(NCCCNS(=O)(=O)c3ccccc3)c2)c1 ?
Result :: f

Query :: Similarly, Nc1c(C(=O)Nc2cccc(Br)c2)sc2nc3c(cc12)C(=O)CCC3 ?
Result :: t

Query :: Similarly, COc1cccc(-c2nn(-c3ccccc3)cc2-c2ccnc(NCCCNS(=O)(=O)c3cccc(F)c3)c2)c1 ?
Result :: f

Query :: Similarly, COc1ccc(OC)c(-c2c(C#N)c(-c3ccco3)nc3c2c(-c2ccccc2)nn3-c2ccccc2)c1 ?
Result :: f

Query :: Similarly, Cn1c(=O)c2c(ncn2CC(=O)Nc2ccc(S(N)(=O)=O)cc2)n(C)c1=O ?
Result :: f

Query :: Similarly, C=C1CC[C@@H](C(=O)OC)Cc2nc(C)ccc21 ?
Result :: f

Query :: Similarly, O=C(N/N=C\c1c(O)ccc2ccccc12)C1CC1 ?
Result :: f

Query :: Similarly, Cc1nn(-c2ccc(Cl)cc2)c(=O)n1CCn1cnc2ccccc21 ?
Result :: f

Value source: PubChem BioAssay (NCI)
